- assay.procedure: Half life in Sprague-Dawley rat at 10 mg/kg, po by LC-MS analysis
- Format: ADME, organism-based
- assay.setup: in vivo
measurement.type: half-life

QUERY: Quick check: half-life of `COc1cc(OC)c2c(=O)[nH]c(-c3ccc(OCC(=O)Nc4ccc(N5CCN(C)CC5)c(Cl)c4)cc3)nc2c1` ?
RESULT: 5.17 h

====

- experimental.system: Bromodomain-containing protein 3 (Homo sapiens)
- Sequence (Q15059 whole entry): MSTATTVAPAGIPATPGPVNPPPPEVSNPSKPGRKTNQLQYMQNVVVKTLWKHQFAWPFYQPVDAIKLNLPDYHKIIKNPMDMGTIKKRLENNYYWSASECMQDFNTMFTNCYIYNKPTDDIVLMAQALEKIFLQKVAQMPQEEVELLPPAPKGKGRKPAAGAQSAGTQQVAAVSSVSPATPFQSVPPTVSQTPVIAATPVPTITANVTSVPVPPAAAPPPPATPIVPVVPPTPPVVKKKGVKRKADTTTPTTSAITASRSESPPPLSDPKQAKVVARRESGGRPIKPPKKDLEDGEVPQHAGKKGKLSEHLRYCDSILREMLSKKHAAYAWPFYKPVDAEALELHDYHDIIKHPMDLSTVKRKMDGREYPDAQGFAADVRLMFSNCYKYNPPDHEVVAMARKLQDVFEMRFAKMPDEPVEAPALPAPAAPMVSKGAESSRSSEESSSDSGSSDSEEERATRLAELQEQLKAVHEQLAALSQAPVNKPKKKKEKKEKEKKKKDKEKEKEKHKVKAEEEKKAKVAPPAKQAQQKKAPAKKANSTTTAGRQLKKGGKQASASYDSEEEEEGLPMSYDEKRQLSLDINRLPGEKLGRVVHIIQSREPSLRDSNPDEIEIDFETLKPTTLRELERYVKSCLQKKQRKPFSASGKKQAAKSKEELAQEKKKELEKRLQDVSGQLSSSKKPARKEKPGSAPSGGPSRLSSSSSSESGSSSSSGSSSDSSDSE
- assay.procedure: Inhibition of BRD3 BD1 (unknown origin) incubated for 2 hrs by TR-FRET assay
measurement.type: IC50 (µM)
# unit: µM | format: bare number

QUERY: Request body: readout IC50, system Bromodomain-containing protein 3 (Homo sapiens), query `COc1cc(OC)c2c(=O)[nH]c(-c3ccc(OCC(=O)Nc4ccc(N5CCN(C)CC5)c(Cl)c4)cc3)nc2c1` . Return the value.
RESULT: 9.2

// data source = ChEMBL document CHEMBL5053557
